assay procedure: viability gain of MRP-1-high H69AR cells under doxorubicin, pilot screen, MRP-1 activator project, CellTiter-Glo, duplicate (AID 807);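 further: compound pretreatment 18-22 h then 72 h combined with doxorubicin; 0% = doxorubicin alone and 100% = vehicle without doxorubicin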
run conditions: H69AR viability with doxorubicin, CellTiter-Glo luminescence; at 10 µM; hits give high values
Measured viability increase of individual entries
Only the number, expressed in %, is required.

**Query** Form field: reported viability increase of CC(=O)C1=C(C)NC(=O)NC1c1ccccc1 (configuration not stated)
**Result** -2.61

More entries:
**Query** Form field: reported viability increase of CCOC(=O)C(C(=O)OCC)=C1OC(=O)c2ccccc21
**Result** 0.39

**Query** Form field: reported viability increase of CC1CN(C2CC(C)(C)NC(C)(C)C2)CCC1=O (configuration not stated)
**Result** 1.05

**Query** Form field: reported viability increase of Cc1sc2nc(SC(C)C)nc(N)c2c1C
**Result** 0.28

**Query** Form field: reported viability increase of CCCOC(=O)c1ccc(-n2nnnc2SCC(=O)N2CCCCC2)cc1
**Result** -0.35

**Query** Form field: reported viability increase of O=C(CC1Sc2ccccc2NC1=O)Nc1cccc(C(=O)O)c1 (configuration not stated)
**Result** -0.43

* * *

Measured viability increase of individual entries
assay procedure: viability gain of MRP-1-high H69AR cells under doxorubicin, pilot screen, MRP-1 activator project, CellTiter-Glo, duplicate (AID 807);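 further: compound pretreatment 18-22 h then 72 h combined with doxorubicin; 0% = doxorubicin alone and 100% = vehicle without doxorubicin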
run conditions: H69AR viability with doxorubicin, CellTiter-Glo luminescence; at 10 µM; hits give high values
Only the number, expressed in %, is required.

Check out these entries, answers already filled in.
**Query** Form field: reported viability increase of O=C(NCc1ccccn1)Nc1cccc(Cl)c1
**Result** -2.22

**Query** Form field: reported viability increase of Cc1ccc(C(C(=O)NC2CCCC2)N2CCCCC2)cc1 (configuration not stated)
**Result** -1.32

**Query** Form field: reported viability increase of COc1ccc(Cl)cc1NC(=O)c1nc2nc(C)cc(C(F)F)n2n1
**Result** -4.12

**Query** Form field: reported viability increase of O=C(NCc1ccco1)C1CCN(S(=O)(=O)c2cccc3cccnc23)CC1
**Result** -2.72

**Query** Form field: reported viability increase of CCOC(=O)C1=C(SCC(=O)Nc2ccccc2)NC(=O)C(C#N)C12CCCCC2 (configuration not stated)
**Result** -2.95

**Query** Form field: reported viability increase of N#Cc1ccc(Oc2cccnc2)cc1C#N
**Result** -0.76

More entries:
**Query** Form field: reported viability increase of COc1cc(C2C3=C(CC(c4ccco4)CC3=O)Nc3ccccc3N2C(C)=O)cc(OC)c1OC (configuration not stated)
**Result** -3.38

**Query** Form field: reported viability increase of CCOC(=O)c1c(C2CCN(C(=O)OCC)CC2)nc2ccccn12
**Result** -1.79

**Query** Form field: reported viability increase of O=C(NCCO)c1ccc(-c2nnc(N3CCOCC3)c3ccccc23)cc1
**Result** 0.15

**Query** Form field: reported viability increase of CC(C)Cc1cc(C(=O)Nc2ccc(F)cc2F)no1
**Result** 1.32

* * *

assay procedure: growth suppression of beta-catenin knockout HCT116, pilot screen, human colon tumor cells (AID 823);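 further: 0% = wells killed by 20 µM Hyamine and 100% = untreated DMSO cell wells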
run conditions: CellTiter-Glo, 60 h, at 10 µM, hits give low values
Results filed as inconclusive are left out.
experimental readout: viability (%)
Only the number, expressed in %, is required.

**Query** Form field: reported viability of CC(=O)n1c2ccccc2c2c1c1ccccc1n2C
**Result** 96

**Query** Form field: reported viability of Fc1cccc(CSc2nc3ccncc3[nH]2)c1
**Result** 94.9

**Query** Form field: reported viability of CC(C)CC1(C(=O)O)NC(c2ccccc2O)C2C(=O)N(C(C)C)C(=O)C21 (stereo not drawn)
**Result** 102

**Query** Form field: reported viability of COc1ccc(CSc2nncn2N)cc1Br
**Result** 101

**Query** Form field: reported viability of Cc1c(NC(=O)C2CC=CCC2C(=O)O)c(=O)n(-c2ccccc2)n1C (stereo not drawn)
**Result** 101

**Query** Form field: reported viability of COc1ccccc1CNC(=O)CCn1c(=O)oc2ccccc21
**Result** 104

**Query** Form field: reported viability of COC(=O)COC(=O)CC(CC(N)=O)c1ccccc1 (stereo not drawn)
**Result** 95

**Query** Form field: reported viability of COc1ccc(C2CC(c3cccc(C)c3)n3nc(N)nc3N2)cc1 (stereo not drawn)
**Result** 105

**Query** Form field: reported viability of CC12CCC(C(=O)N3CCCc4ccccc43)(CC1=O)C2(C)C (stereo not drawn)
**Result** 83.6

* * *

assay procedure: inhibitors of the yeast RAM network, pilot screen, dse1pr::URA3 reporter, 5-FOA selection (AID 869);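 further: 0% = DMSO wells with no growth and 100% = 10 µM 1-NA-PP1 with full growth; RAM network block rescues cells from 5-FOA so hits raise OD615 growth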
run conditions: S. cerevisiae dse1pr::URA3 5-FOA growth, OD615, 2 d; at 10 µM; hits give high values; strain carries analog-sensitive mutant Cbk1 kinase
experimental readout: inhibition (%)
Only the number, expressed in %, is required.

**Query** Form field: reported inhibition of Cc1ccc2oc(=O)c3cc(C(=O)NCCN4CCN(C)CC4)sc3c2c1
**Result** 0.16

**Query** Form field: reported inhibition of CCOC(=O)c1c(C)oc2cc(Br)c(OC(C)C(=O)OCC)cc12 (stereo unspecified)
**Result** 1.76

**Query** Form field: reported inhibition of Cc1cc(C)n(-c2ncc(-c3ccccc3)nn2)n1
**Result** 0.43

**Query** Form field: reported inhibition of CCCSCCCNC(=O)Cn1cc2c(n1)CCCCC2
**Result** -0.37

**Query** Form field: reported inhibition of CCOC(=O)N1CCC(N2CC34C=CC(O3)C(C(=O)Nc3ccc(C(C)C)cc3)C4C2=O)CC1 (stereo unspecified)
**Result** 0.27

Attention now shifts to the item below.
**Query** Form field: reported inhibition of Cn1c(=O)oc2cc(S(=O)(=O)N3CCCC(C(=O)N4CCn5c4nc4ccccc45)C3)ccc21 (stereo unspecified)
**Result** 0.695

* * *

Measured growth inhibition of individual entries
assay procedure: Restrictive medium S. cerevisiae growth inhibition, OD615, pilot screen of yeast lifespan reduction project, restrictive growth control (AID 706);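 further: modified DeaD lifespan yeast strain shifted to restrictive glucose medium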
run conditions: OD615, 48 h, at 10 µM, hits give high values
Only the number, expressed in %, is required.

Check out these entries, answers already filled in.
**Query** Form field: reported growth inhibition of COC(=O)C(C)Sc1nnc(Cc2cc(=O)[nH]c(=O)[nH]2)n1-c1cccc(OC)c1 (stereo unspecified)
**Result** -0.1

**Query** Form field: reported growth inhibition of O=C(Nc1ccccc1C(=O)NCc1ccco1)c1ccccc1
**Result** -6.89

**Query** Form field: reported growth inhibition of c1ccc(-c2ccc(-c3nc(-c4ccncc4)no3)cc2)cc1
**Result** 14.4

**Query** Form field: reported growth inhibition of CCCCN1C(=O)/C(=C2\SC(N3CCCCC3)=NC2=O)c2ccccc21
**Result** 14.6

**Query** Form field: reported growth inhibition of O=C(c1ccccc1)N1CCN(C2CC(=O)N(CCc3ccccc3)C2=O)CC1 (stereo unspecified)
**Result** 4.64

**Query** Form field: reported growth inhibition of COC(=O)c1cc(OC)c(OC)cc1-n1cnc2cc(OC)c(OC)cc2c1=O
**Result** -0.615

**Query** Form field: reported growth inhibition of O=C(Nc1ccccc1F)C1CCCN(S(=O)(=O)c2cccc3cccnc23)C1 (stereo unspecified)
**Result** -7.69

**Query** Form field: reported growth inhibition of O=C(Nc1cnc2ccccc2c1)c1cccnc1
**Result** 0.625

More entries:
**Query** Form field: reported growth inhibition of CCc1ccc(C2CC(=O)NC(SCC(=O)OC(C)C)=C2C#N)cc1 (stereo unspecified)
**Result** -4.45

**Query** Form field: reported growth inhibition of O=C(Nc1sc2c(c1C(=O)NCC1CCCO1)CCCC2)c1cccs1 (stereo unspecified)
**Result** 5.31

**Query** Form field: reported growth inhibition of CC(=O)c1cccc(NC(=O)N2CCCC2C(=O)NCc2ccccc2)c1 (stereo unspecified)
**Result** -11.5

* * *

assay procedure: viability gain of MRP-1-high H69AR cells under doxorubicin, pilot screen, MRP-1 activator project, CellTiter-Glo, duplicate (AID 807);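 further: compound pretreatment 18-22 h then 72 h combined with doxorubicin; 0% = doxorubicin alone and 100% = vehicle without doxorubicin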
run conditions: H69AR viability with doxorubicin, CellTiter-Glo luminescence; at 10 µM; hits give high values
experimental readout: viability increase (%)
Only the number, expressed in %, is required.

**Query** Form field: reported viability increase of Cc1ccc(C(=O)NCCCCNC(=O)c2ccc(C)o2)o1
**Result** -1.97

More entries:
**Query** Form field: reported viability increase of O=C(NCCN1CCOCC1)c1ccc(CS(=O)(=O)c2ccc(Br)cc2)o1
**Result** -1.79

**Query** Form field: reported viability increase of CCOC(=O)N1CCC(NC(=O)Cn2nc(Cc3ccncc3)c3ccccc3c2=O)CC1
**Result** -0.79

**Query** Form field: reported viability increase of CCC(C)Sc1nc2c([nH]c3ccccc32)c(=O)n1C (stereo not drawn)
**Result** -4.85
